target.entity: UniProtKB P00956
Sequence (P00956 whole entry, looked up): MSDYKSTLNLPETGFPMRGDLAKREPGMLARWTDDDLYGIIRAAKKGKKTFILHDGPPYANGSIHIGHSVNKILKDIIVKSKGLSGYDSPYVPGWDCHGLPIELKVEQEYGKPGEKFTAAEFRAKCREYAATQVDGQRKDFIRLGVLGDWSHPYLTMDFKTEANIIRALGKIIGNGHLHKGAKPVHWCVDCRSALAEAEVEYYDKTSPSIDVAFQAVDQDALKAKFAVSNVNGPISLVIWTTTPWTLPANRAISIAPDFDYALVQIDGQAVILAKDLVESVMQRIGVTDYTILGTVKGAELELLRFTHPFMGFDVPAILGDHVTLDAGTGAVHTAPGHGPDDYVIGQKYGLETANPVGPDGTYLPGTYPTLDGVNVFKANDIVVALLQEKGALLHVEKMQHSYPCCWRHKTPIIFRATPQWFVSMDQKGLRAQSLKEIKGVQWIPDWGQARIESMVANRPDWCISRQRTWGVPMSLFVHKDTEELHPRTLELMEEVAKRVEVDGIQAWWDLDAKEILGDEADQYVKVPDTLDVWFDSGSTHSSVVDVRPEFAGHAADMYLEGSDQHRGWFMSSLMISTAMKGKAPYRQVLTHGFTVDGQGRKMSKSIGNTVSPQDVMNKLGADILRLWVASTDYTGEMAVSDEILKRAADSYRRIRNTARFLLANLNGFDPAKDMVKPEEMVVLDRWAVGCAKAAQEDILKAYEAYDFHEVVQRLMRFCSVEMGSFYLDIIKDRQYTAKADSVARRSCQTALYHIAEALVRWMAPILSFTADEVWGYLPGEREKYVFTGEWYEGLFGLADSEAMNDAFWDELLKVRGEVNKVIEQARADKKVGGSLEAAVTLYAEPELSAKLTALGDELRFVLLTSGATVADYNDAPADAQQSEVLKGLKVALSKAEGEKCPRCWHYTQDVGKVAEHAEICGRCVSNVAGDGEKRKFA
test.method.notes: Inhibitory concentration against isoleucyl-tRNA synthetase was determined by measuring decrease of the aminoacylation product [3H]- isoleucyl tRNA of Escherichia coli
value.kind: pIC50
Recall that pIC50 is obtained by taking minus log10 of the concentration measured in molar.

// pIC50 lookup, compound = CCC(C)[C@H](N)C(=O)OCCN(O)C(=O)c1ccc(OC)c(O)c1 (stereo partly specified) , result: 5.35

// pIC50 lookup, compound = CCC(C)[C@H](N)C(=O)OCC1CC(c2ccc(O)c(OC)c2)=NO1 (stereo partly specified) , result: 4.10

// pIC50 lookup, compound = CCC(C)[C@H](N)C(=O)OCCNC(=O)c1ccc(O)c(OC)c1 (stereo partly specified) , result: 4.19

// pIC50 lookup, compound = CCC(C)[C@H](N)C(=O)OCC1CC(c2ccc(OC)c(O)c2)=NO1 (stereo partly specified) , result: 4.24

// pIC50 lookup, compound = CCC(C)[C@H](N)C(=O)OCCN(O)C(=O)c1ccc(O)c(OC)c1 (stereo partly specified) , result: 4.89

// pIC50 lookup, compound = CCC(C)[C@H](N)C(=O)OCCNC(=O)Cc1ccc(OC)c(O)c1 (stereo partly specified) , result: 4.25

// pIC50 lookup, compound = CCC(C)[C@H](N)C(=O)OCCNC(=O)Cc1ccc(O)c(OC)c1 (stereo partly specified) , result: 4.35

// pIC50 lookup, compound = CCC(C)[C@H](N)C(=O)OCCN(O)C(=O)Cc1ccc(O)c(OC)c1 (stereo partly specified) , result: 3.64

// pIC50 lookup, compound = CCC(C)[C@H](N)C(=O)OCCNC(=O)c1ccc(OC)c(O)c1 (stereo partly specified) , result: 3.97

// pIC50 lookup, compound = CCC(C)[C@H](N)C(=O)OC[C@@H]1COC(c2ccc(O)c(OC)c2)=N1 (stereo partly specified) , result: 4.41

// pIC50 lookup, compound = CCC(C)[C@H](N)C(=O)OCCN(O)C(=O)Cc1ccc(OC)c(O)c1 (stereo partly specified) , result: 4.68

Just for reference, BindingDB's records for doi:10.1016/s0960-894x(01)00096-8 is where these values come from.
